Tested on: BDF1 mice, P388 leukemia ip, median survival T/C
Assay: NCI In Vivo Anticancer Drug Screen. Data for tumor model P388 Leukemia (intraperitoneal) in B6D2F1 (BDF1) mice
Settings: endpoint: median survival time; dose: 100.0 mg/kg/injection; schedule: Q01DX001 (ip); vehicle: saline; higher = longer survival
Toxic doses and inconclusive results are not listed.
EXPERIMENTAL_READOUT: T/C

Please review the entries below; each comes with its answer.
NCCCC(=O)O = 100 % of control
O = 95 % of control
O=c1[nH]cnc2c1ncn2C1OC(CF)C(O)C1O (configuration not stated) = 108 % of control

Value sought for every listed compound: T/C.
1. CCNC(C)(C)C(SSSC(c1cccs1)C(C)(C)NCC)c1cccs1 (configuration not stated)
2. CC(N)C(=O)NC(C)C(=O)O (configuration not stated)

Resp:
1. 104 % of control
2. 98 % of control

Value sought for every listed compound: T/C.
1. CNC(=O)NC1C(O)C(CO)OC(OC)C1O (configuration not stated)
2. Cc1cc2c3ccccc3ncn2n1

Resp:
["118 % of control", "100 % of control"]

====

For each of the compounds below, state its T/C.
System: BDF1 mice, P388 leukemia ip, median survival T/C
Assay: NCI In Vivo Anticancer Drug Screen. Data for tumor model P388 Leukemia (intraperitoneal) in B6D2F1 (BDF1) mice
Settings: endpoint: median survival time; dose: 12.5 mg/kg/injection; schedule: Q01DX009 (ip); vehicle: water; higher = longer survival
Toxic doses and inconclusive results are not listed.

Value sought for every listed compound: T/C.
1. Cc1cn(C)c2nccnc12
2. c1ccc(Cn2ccnc2)cc1
3. c1ccc(-c2c(-c3ccccc3)c(-c3ccccc3)c(-c3ccccc3)c(-c3ccccc3)c2-c2ccccc2)cc1

Resp:
100 % of control
87 % of control
115 % of control

Value sought for every listed compound: T/C.
1. O=C(O)C1CCC2(CCCCC2)CC1
2. COC(=O)C(CO)NC(=O)OCc1ccccc1 (stereo not given)

Resp:
["100 % of control", "100 % of control"]

====

Tested on: BDF1 mice, P388 leukemia ip, median survival T/C
Test: NCI In Vivo Anticancer Drug Screen. Data for tumor model P388 Leukemia (intraperitoneal) in B6D2F1 (BDF1) mice
Conditions: endpoint: median survival time; dose: 400.0 mg/kg/injection; schedule: Q04DX003 (ip); vehicle: saline with Tween-80
Inconclusive results and toxic doses are left out. The calls were made as follows: active = survival T/C of 150% or more; inactive = T/C below 125% in these data. Residues, ends and D or L forms follow the SMILES beside them. *: point of attachment. Bn = c1ccc(C*)cc1; For = O=C*
Answer with one of the outcomes TRUE for active, FALSE for inactive

Req: How was "CCCCCCC(=O)NC1=C(N2CC2)C(=O)C(NC(=O)CCCCCC)=C(N2CC2)C1=O" classified in this test?
Resp: FALSE

Req: How was "O=C(/C=C/c1ccc([N+](=O)[O-])cc1)c1ccc(Cl)cc1" classified in this test?
Resp: FALSE

Req: How was CC(C)CC(NC(=O)C(Cc1ccc(OCc2ccccc2)cc1)NC=O)C(=O)O (configuration not stated) (For-Tyr(Bn)-Leu-OH; configuration not given here) classified in this test?
Resp: FALSE

Req: How was OCC12CCCCC1CC1(CC2)OCCO1 (configuration not stated) classified in this test?
Resp: FALSE

Req: How was "O=C(c1ccccc1Cl)n1c2c(c3ccccc31)CCCC2" classified in this test?
Resp: FALSE

Req: How was "O=C(O)CC/C(=N\O)c1cccc([N+](=O)[O-])c1" classified in this test?
Resp: FALSE

Hello, the source for this data is PubChem BioAssay AID328, in case you need it.
